System: HepG2-TP53BP1-CLTA
Experiment: phenotypically active (imaging signature differs from DMSO and reproducible) at any of 0.3-9 uM (binary (1 = active, 0 = inactive)); higher = active
Settings: treatment time: 24 h
Where a name gives a salt, the structure may show the parent alone.
Kindly state phenotypically active for each of the entries shown.
One number for each entry.

Some compounds with recorded phenotypically active:
Cc1ccc(/C(=C/CN2CCCC2)c2cccc(/C=C/C(=O)O)n2)cc1 [acrivastine] : 1
C[N+](C)(CCCCCC[N+](C)(C)CCCN1C(=O)c2ccccc2C1=O)CCCN1C(=O)c2ccccc2C1=O [W-84 dibromide] : 0
Nc1nccc(-c2ccc3noc(-c4ccc(Cl)cc4)c3c2)n1 [PIM-1 Inhibitor 2] : 1
C[C@@H](Nc1ncnc2[nH]c(-c3ccc(O)cc3)cc12)c1ccccc1 [PKI 166 hydrochloride] : 1
Cc1nc2c(O)cccc2c(=O)[nH]1 : 0
COc1ccc2c(c1)c(CC(=O)O)c(C)n2C(=O)c1ccc(Cl)cc1 [indomethacin] : 0

Record phenotypically active for all entries; do not skip any.
1. CC(=O)O[C@@H]1C[C@H]2C(C)(C)C(=O)C=C[C@]2(C)[C@H]2CC[C@@]3(C)[C@H](c4ccoc4)OC(=O)[C@H]4O[C@]43[C@@]21C [gedunin]
2. CCc1c(C)[nH]c2c1C(=O)C(CN1CCOCC1)CC2 (stereo not given) [molindone]
3. C=C1C[C@]23C[C@@]1(O)CC[C@H]2[C@@]12C=C[C@H](O)[C@](C)(C(=O)O1)[C@H]2[C@@H]3C(=O)O [Gibberellic acid]
4. CN(C)CCCN1c2ccccc2Sc2ccc(Cl)cc21 [chlorpromazine]
5. C[C@](N)(Cc1ccc(O)c(O)c1)C(=O)O [methyldopa]
6. CC1=CC(=O)CC(C)(C)C1(O)/C=C/C(C)=C\C(=O)O (mixture of isomers) [(+/-)-2-cis-4-trans-Abscisic acid]
7. CC[C@]12CCCN3CCc4c(n(c5ccccc45)C(=O)C1)[C@@H]32 [Eburnamonine (-)]

[1, 0, 0, 1, 0, 0, 1]

Record phenotypically active for all entries; do not skip any.
1. O=C1CN2Cc3c(ccc(Cl)c3Cl)N=C2N1 [Anagrelide hydrochloride]
2. CCCCOc1cc(C(=O)NCCN(CC)CC)c2ccccc2n1 [cinchocaine]

1: 0; 2: 1

Record phenotypically active for all entries; do not skip any.
1. CCOC(=O)[C@H](CCc1ccccc1)N[C@@H](C)C(=O)N1[C@H](C(=O)O)C[C@@H]2CCC[C@@H]21 [ramipril]
2. CN(C)CC(=O)N1CCC[C@@H](n2nc(-c3ccc(Oc4ccccc4)cc3)c3c(N)ncnc32)C1

1. 0
2. 1

###

Kindly state phenotypically active for each of the entries shown.
Test system: WPMY1-TP53BP1-CLTA
Assay: phenotypically active (imaging signature differs from DMSO and reproducible) at any of 0.3-9 uM (binary (1 = active, 0 = inactive)); higher = active
Settings: treatment time: 24 h
Counter-ions that a name gives are not always drawn.

Some molecules with recorded phenotypically active:
Cc1cc(Nc2ncc3c(n2)N(C)C(=O)N(c2cc(NC(=O)c4cccc(C(F)(F)F)c4)ccc2C)C3)n(C)n1 : 1 (active)
Cc1ccc2ccc(C(Nc3ccccc3)c3ccccc3)c(O)c2n1 (centres undefined) : 0 (inactive)

Record phenotypically active for all entries; do not skip any.
1. COc1cc2c(cc1O)CC[C@@H]1[C@@H]2CC[C@]2(C)[C@@H](O)CC[C@@H]12
2. Cc1nc[nH]c1C1CCN(c2nc3cccc4c3n2CCC4=O)CC1
3. CCCC(CCC)C(=O)O [Valproic acid, sodium salt]

1: 1 (active); 2: 0 (inactive); 3: 0 (inactive)

Record phenotypically active for all entries; do not skip any.
1. CCCCCC1CC1CC1CC1CCCCCCCC(=O)O (centres undefined)
2. COc1c2occc2cc2ccc(=O)oc12
3. Cc1cc(/N=N/c2cc(S(=O)(=O)O)c(C)cc2C)c(N)cc1O [Ischemin sodium salt]
4. COc1cc2c(cc1OC)-c1c/c(=N/c3c(C)cc(C)cc3C)n(C)c(=O)n1CC2 [Trequinsin hydrochloride]

["0 (inactive)", "0 (inactive)", "0 (inactive)", "1 (active)"]
